# PROTOCOL DETAILS: NCI Yeast Anticancer Drug Screen. Data for the sgs1 strain (AID 173);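 note: 0% = growth of vehicle-only control cultures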
# SETTINGS: S. cerevisiae sgs1 mutant, at 1.2 µM, hits give high values
The panel holds about 79,000 compounds, 15% with a hit somewhere; the sample as a whole holds those more often.
Each record here notes measured growth inhibition.
Field format: number, assumed %, no unit text.

Check out these entries, answers already filled in.
MOLECULE	QUANTITY	RESULT VALUE
Cc1c([N+](=O)[O-])oc2ccc3ccccc3c12	growth inhibition	49
O=P(CCCCP(=O)(c1ccccc1)c1ccccc1)(c1ccccc1)c1ccccc1.[Cl][Sn]([Cl])([c]1ccccc1)[c]1ccccc1	growth inhibition	0
Nc1ccc(Cl)cc1C(=O)c1ccccc1	growth inhibition	-7
C[N+](C)(C)CC1CCCC(C[N+](C)(C)C)C1=O (configuration not stated)	growth inhibition	-1
Oc1ccc2nc3ccccc3nc2c1	growth inhibition	-2
Cc1nc2ccccc2cc1C[N+]12CN3CN(CN(C3)C1)C2	growth inhibition	-1
COc1cc([C@@H]2c3cc4c(cc3C[C@@H]3COC(=O)C32)OCO4)cc(OC)c1O (some centres not stated)	growth inhibition	20
O=C(O)C1C2C=CC(C2)C1c1ccccc1 (configuration not stated)	growth inhibition	-5

Read the next record carefully.
Which growth inhibition value is on record for COC(=O)C(F)C(Br)C(=O)OC (configuration not stated) ?
48

All figures here come from PubChem BioAssay (NCI).
